Listing of entries alongside the reported protein stability index.
Assay: protein stability index of a GFP-peptide fusion (yeast GPS) (PSI 1-4); higher = more stable; sorted into four equal gates, so the index is relative within each strain
Details: pdr5∆

> print(dat)
                 biosequence            quantity.name  result
1  DKPLLKAGRAFHKYRLK [RPL2A]  protein stability index    3.07
2   FISSNDAFNMLSLTTVP [SNF6]  protein stability index    2.44
3   YSQSPPRSPGRSPTRRL [SMC4]  protein stability index    3.19
4   SLNSMTNAKLPNVDLVT [RGR1]  protein stability index    2.74
5   VGGQFSKVQFDAKTSYP [REC8]  protein stability index    3.17

Task item: Fill in: protein stability index of WGIPLIKELRSKGYPIQ [FAS1] is ___
Reply: 2.75

Task item: Next sequence up: EINYAFSMDEEFKNMDC [SIR3]
Reply: 3.14

Task item: Do the same for KDVKARIAAGDGDDDDE [QCR9] please
Reply: 2.29
